Molecular target: EGFR kinase (Homo sapiens, UniProt P00533)
Sequence (P00533 25-1210): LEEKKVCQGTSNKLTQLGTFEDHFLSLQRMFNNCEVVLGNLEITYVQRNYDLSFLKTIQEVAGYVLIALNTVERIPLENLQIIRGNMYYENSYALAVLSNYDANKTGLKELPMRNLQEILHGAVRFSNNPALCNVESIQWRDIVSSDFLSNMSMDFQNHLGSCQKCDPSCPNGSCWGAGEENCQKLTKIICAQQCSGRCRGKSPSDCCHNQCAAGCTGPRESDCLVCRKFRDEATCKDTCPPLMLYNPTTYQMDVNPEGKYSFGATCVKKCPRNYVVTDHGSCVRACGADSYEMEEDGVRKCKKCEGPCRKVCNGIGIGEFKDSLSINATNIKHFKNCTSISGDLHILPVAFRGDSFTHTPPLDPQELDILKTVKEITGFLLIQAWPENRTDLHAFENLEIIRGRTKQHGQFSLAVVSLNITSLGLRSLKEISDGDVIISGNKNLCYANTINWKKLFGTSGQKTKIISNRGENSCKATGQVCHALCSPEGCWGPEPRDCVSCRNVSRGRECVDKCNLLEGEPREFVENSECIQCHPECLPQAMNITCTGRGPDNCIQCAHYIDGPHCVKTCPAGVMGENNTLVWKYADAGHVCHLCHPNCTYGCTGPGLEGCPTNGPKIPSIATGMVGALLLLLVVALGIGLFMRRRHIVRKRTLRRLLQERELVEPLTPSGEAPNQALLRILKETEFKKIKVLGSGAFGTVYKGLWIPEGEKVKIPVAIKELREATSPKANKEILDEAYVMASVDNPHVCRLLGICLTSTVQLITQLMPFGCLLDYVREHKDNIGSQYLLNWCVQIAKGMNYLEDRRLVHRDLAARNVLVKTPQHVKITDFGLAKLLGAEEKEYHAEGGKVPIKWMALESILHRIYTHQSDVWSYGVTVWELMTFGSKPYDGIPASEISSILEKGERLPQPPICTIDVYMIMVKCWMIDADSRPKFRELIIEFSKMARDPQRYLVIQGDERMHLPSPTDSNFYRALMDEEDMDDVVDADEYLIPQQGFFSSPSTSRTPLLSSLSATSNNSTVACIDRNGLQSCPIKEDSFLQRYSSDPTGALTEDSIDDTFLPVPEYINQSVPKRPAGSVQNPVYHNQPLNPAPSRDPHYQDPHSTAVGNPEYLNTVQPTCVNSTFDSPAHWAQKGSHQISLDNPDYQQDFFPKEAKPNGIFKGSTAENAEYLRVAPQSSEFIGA
Assay: Luminescence ADP production kinase assay, EGFR
VALUE TYPE: IC50

// known answers, use as guide
CS(=O)(=O)CCNCc1nc(-c2ccc3ncnc(Nc4ccc(OCc5cccc(F)c5)c(Cl)c4)c3c2)cs1 :: 1.3 µM
CC1(C)O[C@@H]2C[C@H]3[C@@H]4C[C@H](F)C5=CC(=O)CC[C@]5(C)[C@H]4[C@@H](O)C[C@]3(C)[C@]2(C(=O)CO)O1 [Flurandrenolide, flurandrenolide] :: > 10 µM

We next turn to a different compound, shown below.
Q: Specify measured IC50 for CC[C@@]1(O)C(=O)OCc2c1cc1n(c2=O)Cc2cc3ccccc3nc2-1 .
Result: > 10 µM

---

Test system: A549-EGFRB cells
Assay: EGFRB assay, nuclei count readout
Format: cell-based
Conditions: inhibitors; dose response up to 10 μM; N.E. = no effect; * = partial inhibition
VALUE TYPE: IC50 or EC50 (nM) Nuclei count

Reference set (4 entries):
COc1cc2ncnc(Nc3cccc(Cl)c3)c2cc1OC :: N.E.
CC[C@@]1(O)C(=O)OCc2c1cc1n(c2=O)Cc2cc3ccccc3nc2-1 :: N.E.^*
CC(C)[C@H](CO)Nc1nc(Nc2cc(N)cc(Cl)c2)c2ncn(C(C)C)c2n1 :: N.E.^*
COc1cc2ncnc(Nc3ccc(Cl)cc3F)c2cc1OC :: N.E.

Now consider the entry below.
Q: Determine from records and report IC50 or EC50 (nM) Nuclei count for CS(=O)(=O)CCNCc1nc(-c2ccc3ncnc(Nc4ccc(OCc5cccc(F)c5)c(Cl)c4)c3c2)cs1
Result: N.E.

---

Tested on: H2030 cells (wild type EGFR)
Experiment: Alamar Blue viability assay, H2030
Assay type: cell-based
Conditions: Homo sapiens, NCI-H2030, 120 h, read-out: Alamar Blue viability assay IC50 H2030
VALUE TYPE: IC50

CC[C@@]1(O)C(=O)OCc2c1cc1n(c2=O)Cc2cc3ccccc3nc2-1 [Camptothecin, camptothecin] :: 0.017 µM
COc1cc2ncnc(Nc3cccc(Cl)c3)c2cc1OC [Tyrphostin AG 1478] :: > 10 µM
CS(=O)(=O)CCNCc1ccc(-c2ccc3ncnc(Nc4ccc(OCc5cccc(F)c5)c(Cl)c4)c3c2)o1 [Lapatinib, lapatinib] :: > 10 µM
COc1cc2ncnc(Nc3cccc(Br)c3)c2cc1OC [PD 153035] :: > 10 µM
CS(=O)(=O)CCNCc1nc(-c2ccc3ncnc(Nc4ccc(OCc5cccc(F)c5)c(Cl)c4)c3c2)cs1 [GW 583340] :: > 10 µM

Then there is this molecule:
Q: Return IC50 (reported value) for this molecule: CC1(C)O[C@@H]2C[C@H]3[C@@H]4C[C@H](F)C5=CC(=O)CC[C@]5(C)[C@H]4[C@@H](O)C[C@]3(C)[C@]2(C(=O)CO)O1 [Flurandrenolide, flurandrenolide]
Result: > 10 µM

---

System: A549-EGFRB cells
Experiment: EGFRB assay, nuclei count readout
Format: cell-based
Conditions: inhibitors; dose response up to 10 μM; N.E. = no effect; * = partial inhibition
VALUE TYPE: IC50 or EC50 (nM) Nuclei count

CO[C@H]1/C=C\C=C(/C)C(=O)NC2=CC(=O)C(NCCN(C)C)=C(C[C@@H](C)C[C@H](OC)[C@H](O)[C@@H](C)/C=C(\C)[C@@H]1OC(N)=O)C2=O :: N.E.
CN(C)c1cc2c(Nc3ccc4c(cnn4Cc4ccccc4)c3)ncnc2cn1 :: N.E.
CCN(CC)CC1CCN(c2ncc3ncnc(Nc4ccc(F)c(Cl)c4)c3n2)CC1.Cl.Cl :: N.E.
